Hey, just so you know, these numbers are from the Immune Epitope Database (IEDB).

measurement.target: HLA-B*08:01
assay.method.text: IEDB peptide-MHC binding, purified MHC/competitive/radioactivity; filed as Kd, often an IC50 or EC50 that approximates it; bounds were set here for any values at or beyond the usual limits of such assays
test.conditions: source organism: Hepacivirus hominis
measured.property: Kd

{"residue.string": "RPALVFDITK", "observed": "≥ 49.8 µM"}

----------
measurement.target: HLA-A*03:01
assay.method.text: IEDB peptide-MHC binding, purified MHC/competitive/fluorescence; filed as Kd, often an IC50 or EC50 that approximates it; bounds were set here for any values at or beyond the usual limits of such assays
test.conditions: source organism: Yersinia pestis Antiqua
pKd: −log10 of the molar value.
measured.property: pKd

{"residue.string": "KLFFQVIAK", "observed": 8.19}
